assay: Oral bioavailability in Sprague-Dawley rat at 10 mg/kg measured upto 24 to 48 hrs by LC-MS/MS analysis; assay type: ADME, organism-based; settings: in vivo, time 24-48 hrs
readout.type: bioavailability (%)

(1) COc1cc(NC(C(=O)c2c[nH]c3c(C)c(Cl)ccc23)c2ccc(F)cc2OC)cc(OCCO)c1 (single isomer, unassigned; (+))
(2) COc1cc(NC(C(=O)c2c[nH]c3cc(F)ccc23)c2ccc(F)cc2OC)cc(OCCO)c1 (configuration not stated)
Problem: I'd appreciate it if you could identify which of 1 and 2 has the greater bioavailability. To answer, give the label that identifies your chosen option.
Result: 1
(1: 54%, 2: 26%)

* * *

tested on: dengue virus type 1; test: Antiviral activity against DENV-1 TC974#666 infected in african green monkey Vero cells incubated for 24 hrs measured after 3 days post infection; type: functional, organism-based; conditions: TC974#666, Vero
readout.type: EC50 (nM)

Check out these entries, answers already filled in.
>>> df
                                   molecule  quantity_unit  endpoint_value
0  COc1cc(NC(C(=O)c2c[nH]c3cc(F)ccc23)c2ccc(F)cc2)cc(OCCO)c1 (stereo in doubt)             nM              49
1  COc1cc(NC(C(=O)c2c[nH]c3cc(OC)c(C)cc23)c2ccc(Cl)cc2OC)cc(OCCO)c1 (single isomer, unassigned; (+))             nM               4

(a) COc1cc(NC(C(=O)c2c[nH]c3cc(F)ccc23)c2ccc(Cl)cc2OC)cc(OCCO)c1 (single isomer, unassigned; (+))
(b) COc1cc(NC(C(=O)c2c[nH]c3ccccc23)c2ccccc2)cc(OCCO)c1 (centres undefined)
Problem: I'd appreciate it if you could identify which of a and b has the greater EC50. To answer, give the label that identifies your chosen option.
Result: b
(b: 180 nM, a: 8 nM)

* * *

assay: Clearance in Sprague-Dawley rat at 2.5 mg/kg, iv measured upto 24 hrs by LC-MS/MS analysis; assay type: ADME, organism-based; conditions: in vivo
readout.type: clearance (mL/min/kg)

Check out these entries, answers already filled in.
>>> df
                                   compound  endpoint_value
0  COc1cc(NC(C(=O)c2c[nH]c3ccccc23)c2ccccc2)cc(OCCO)c1 (stereo not given)            34.7
1  COc1cc(NC(C(=O)c2c[nH]c3cc(F)ccc23)c2ccc(F)cc2OC)cc(OCCO)c1 (stereo not given)            39.2
2  COc1cc(NC(C(=O)c2c[nH]c3c(C)c(Cl)ccc23)c2ccc(F)cc2OC)cc(OCCO)c1 (single isomer, unassigned; (+))            10.7

(1) COc1cc(NC(C(=O)c2c[nH]c3cc(F)ccc23)c2ccc(Cl)cc2OC)cc(OCCO)c1 (single isomer, unassigned; (+))
(2) COc1cc(NC(C(=O)c2c[nH]c3cc(OC)c(C)cc23)c2ccc(Cl)cc2OC)cc(OCCO)c1 (single isomer, unassigned; (+))
Problem: I'd appreciate it if you could identify which of 1 and 2 has the greater clearance. To answer, give the label that identifies your chosen option.
Result: 1
(1: 46.2 mL/min/kg, 2: 6.8 mL/min/kg)

* * *

assay: Microsomal stability in rat liver microsomes assessed as intrinsic clearance preincubated for 5 mins followed by NADPH addition measured upto 60 mins by LC-MS/MS analysis; format: ADME, Microsome; conditions: time < 65 min, read-out: CLH
readout.type: microsomal CLint (µL/min/mg)

>>> df
                                   molecule  quantity_unit  endpoint_value
0  COc1cc(NC(C(=O)c2c[nH]c3ccc(F)cc23)c2ccc(F)cc2)cc(OCCO)c1 (stereo unspecified)      µL/min/mg              10
1  COc1cc(NC(C(=O)c2c[nH]c3c(F)c(F)ccc23)c2ccc(F)cc2OC)cc(OCCO)c1 (stereo unspecified)      µL/min/mg               8

(1) COc1cc(NC(C(=O)c2c[nH]c3cc(F)ccc23)c2ccc(Cl)cc2OC)cc(OCCO)c1 (single isomer, unassigned; (+))
(2) COc1cc(NC(C(=O)c2c[nH]c3cc(Cl)ccc23)c2ccc(F)cc2OC)cc(OCCO)c1 (stereo unspecified)
(3) COc1cc(NC(C(=O)c2c[nH]c3ccccc23)c2ccccc2)cc(OCCO)c1 (stereo unspecified)
Problem: Falling order of microsomal CLint, please. List the labels, following the order given in the request.
Result: 3, 2, 1
(3: 37 µL/min/mg, 2: 24 µL/min/mg, 1: 9 µL/min/mg)

* * *

experiment: Oral bioavailability in Sprague-Dawley rat at 10 mg/kg measured upto 24 to 48 hrs by LC-MS/MS analysis; format: ADME, organism-based; conditions: in vivo, time 24-48 hrs
readout.type: bioavailability (%)

Check out these entries, answers already filled in.
In [3]: df
Out[3]:
                                   compound     readout_type  endpoint_value
0  COc1cc(NC(C(=O)c2c[nH]c3c(C)c(F)ccc23)c2ccc(F)cc2OC)cc(OCCO)c1 (single isomer, unassigned; (+))  bioavailability              88
1  COc1cc(NC(C(=O)c2c[nH]c3cc(F)ccc23)c2ccc(F)cc2)cc(OCCO)c1 (stereo in doubt)  bioavailability              40
2  COc1cc(NC(C(=O)c2c[nH]c3cc(OC)c(C)cc23)c2ccc(Cl)cc2OC)cc(OCCO)c1 (single isomer, unassigned; (+))  bioavailability              45

(a) COc1cc(NC(C(=O)c2c[nH]c3cc(OC)c(C)cc23)c2ccc(F)cc2OC)cc(OCCO)c1 (single isomer, unassigned; (+))
(b) COc1cc(NC(C(=O)c2c[nH]c3cc(F)ccc23)c2ccc(Cl)cc2OC)cc(OCCO)c1 (single isomer, unassigned; (+))
Problem: Between a and b , which one shows the smaller bioavailability number? To answer, give the label that identifies your chosen option.
Result: a
(a: 40%, b: 69%)

* * *

assay: Microsomal stability in rat liver microsomes assessed as intrinsic clearance preincubated for 5 mins followed by NADPH addition measured upto 60 mins by LC-MS/MS analysis; assay type: ADME, Microsome; conditions: time < 65 min, read-out: CLH
readout.type: microsomal CLint

Check out these entries, answers already filled in.
                                   molecule  endpoint_value
0  COc1cc(NC(C(=O)c2c[nH]c3cc(OC)c(F)cc23)c2ccc(F)cc2OC)cc(OCCO)c1 (single isomer, unassigned; (+))   < 8 µL/min/mg
1  COc1cc(NC(C(=O)c2c[nH]c3cc(F)ccc23)c2ccc(F)cc2)cc(OCCO)c1 (stereo in doubt)   < 8 µL/min/mg
2  COc1cc(NC(C(=O)c2c[nH]c3c(C)c(Cl)ccc23)c2ccc(F)cc2OC)cc(OCCO)c1 (single isomer, unassigned; (+))   < 8 µL/min/mg
3  COc1cc(NC(C(=O)c2c[nH]c3c(C)c(F)ccc23)c2ccc(F)cc2OC)cc(OCCO)c1 (single isomer, unassigned; (+))   < 8 µL/min/mg
4  COc1cc(NC(C(=O)c2c[nH]c3cc(OC)c(C)cc23)c2ccc(F)cc2OC)cc(OCCO)c1 (single isomer, unassigned; (+))   < 8 µL/min/mg

Problem: microsomal CLint for COc1cc(NC(C(=O)c2c[nH]c3cc(OC)c(C)cc23)c2ccc(Cl)cc2OC)cc(OCCO)c1 (single isomer, unassigned; (+)) ?
Result: < 8 µL/min/mg
